tested on: Fibroblast; experiment: Multiplex assay against human fibroblast; type: toxicity, cell-based; settings: 48 h, 1 µM, compound concentration 1 uM, replicate 1
Hi there, I'd appreciate the recorded Population Tubulin-Different-Phenotype (%) for every entry that follows.
Answers are plain numbers, in %.

Recorded results for 6 compounds are shown here.
C=CC(=O)Nc1cc(-n2c(=O)ccc3cnc4ccc(-c5ccc(NS(C)(=O)=O)cc5)cc4c32)ccc1C | 34
CC(Cc1ccc(O)c(O)c1)C(C)Cc1ccc(O)c(O)c1 (configuration not stated) [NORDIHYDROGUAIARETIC ACID] | 16
Cl.NC[C@@H]1O[C@H](C23CC4CC(CC(C4)C2)C3)Cc2c1ccc(O)c2O | 13
CN(c1cc(C(F)(F)F)nc(OCCC(=O)O)n1)c1cccc2c1CCC2 | 38
Cc1c(P(=S)(c2ccccc2)c2ccccc2)n2ccccc2[n+]1C/C=C/c1ccccc1.[Br-] | 64
CN1C(=O)[C@@H](NC(=O)c2cc3ccccc3[nH]2)N=C(c2ccccc2)c2ccccc21 [DEVAZEPIDE] | 66

Fill in Population Tubulin-Different-Phenotype (%) for each of the 6 compounds listed.
1. CC(C)[C@H](CO)Nc1nc(Nc2cccc(Cl)c2)c2ncn(C(C)C)c2n1
2. Cc1ccc(S(=O)(=O)NC2c3ccccc3Oc3ccccc32)cc1
3. CCCCN(CC)c1nc(C)nc2c1c(C)cn2-c1c(C)cc(C)cc1C.Cl
4. N#Cc1cccc(C(=O)Nc2cc(-c3ccccc3)nn2-c2ccccc2)c1
5. N#CCNC(=O)c1ccc(-c2ccnc(Nc3ccc(N4CCOCC4)cc3)n2)cc1
6. Oc1cccc(-c2nc(N3CCOCC3)c3oc4ncccc4c3n2)c1

Output:
1: 49; 2: 37; 3: 32; 4: 50; 5: 17; 6: 22

Each compound below has a recorded value; state its Population Tubulin-Different-Phenotype (%).
1. CCCc1cc(C)[nH]c(=O)c1CNC(=O)c1cc(-c2ccc(N3CCN(C(C)C)CC3)nc2)cc2c1cnn2C(C)C
2. CC(/C=C1\SC(=S)N(CCCC(=O)Nc2ccc(C(=O)O)c(O)c2)C1=O)=C\c1ccccc1
3. CCCCCNC(=N)N/N=C/c1c[nH]c2ccc(OC)cc12.O=C(O)/C=C\C(=O)O [TEGASEROD MALEATE]
4. C[C@@H](Oc1cc(-n2cnc3ccc(CN4CCN(C)CC4)cc32)sc1C(N)=O)c1ccccc1C(F)(F)F
5. CC(C)c1cc(Nc2nc(N3CCC[C@H](N)C3)ncc2C(N)=O)cc(C(C)C)n1

Output:
1: 63; 2: 33; 3: 24; 4: 76; 5: 68

---

Please respond with reported Population Membrane Permeable-Phenotype (%) for every item in the list.
system: U2OS; assay: Multiplex assay against U2OS; assay type: toxicity, cell-based; conditions: human, 12 h, 10 µM, compound concentration 10 uM, replicate 1
One number for each entry, in %.

CN1C(=O)[C@@H](NC(=O)c2cc3ccccc3[nH]2)N=C(c2ccccc2)c2ccccc21 [DEVAZEPIDE] | 21
Cc1ccc(S(=O)(=O)NC2c3ccccc3Oc3ccccc32)cc1 | 71
c1ccc(-c2oc3ncnc(NC[C@@H]4CCCO4)c3c2-c2ccccc2)cc1 | 20
CCCCN(CC)c1nc(C)nc2c1c(C)cn2-c1c(C)cc(C)cc1C.Cl | 2

Now take the following compound into account.
Sure, the documented Population Membrane Permeable-Phenotype (%) for `CC(/C=C1\SC(=S)N(CCCC(=O)Nc2ccc(C(=O)O)c(O)c2)C1=O)=C\c1ccccc1` is 9

---

system: HEK-293T; experiment: Multiplex assay against HEK293T; format: toxicity, cell-based; details: human, 48 h, 10 µM, compound concentration 10 uM, replicate 2;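 further: share of the cells with healthy nuclei that show this phenotype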
For each record, write down the corresponding Population Tubulin-Different-Phenotype (%).
Answers are plain numbers, in %.

Would you please look over these solved cases?
CCCc1cc(C)[nH]c(=O)c1CNC(=O)c1cc(-c2ccc(N3CCN(C(C)C)CC3)nc2)cc2c1cnn2C(C)C | 55
Cc1c(P(=S)(c2ccccc2)c2ccccc2)n2ccccc2[n+]1C/C=C/c1ccccc1.[Br-] | 100
C[C@@H](Oc1cc(-n2cnc3ccc(CN4CCN(C)CC4)cc32)sc1C(N)=O)c1ccccc1C(F)(F)F | 56

For every record below, what is its Population Tubulin-Different-Phenotype (%)?
1. N#CCNC(=O)c1ccc(-c2ccnc(Nc3ccc(N4CCOCC4)cc3)n2)cc1
2. N#Cc1cccc(C(=O)Nc2cc(-c3ccccc3)nn2-c2ccccc2)c1
3. CN(c1cc(C(F)(F)F)nc(OCCC(=O)O)n1)c1cccc2c1CCC2

Output:
1. 74
2. 98
3. 12

Please state, for each entry, its recorded Population Tubulin-Different-Phenotype (%).
1. C=CC(=O)Nc1cc(-n2c(=O)ccc3cnc4ccc(-c5ccc(NS(C)(=O)=O)cc5)cc4c32)ccc1C
2. CC(/C=C1\SC(=S)N(CCCC(=O)Nc2ccc(C(=O)O)c(O)c2)C1=O)=C\c1ccccc1

Output:
1: 27; 2: 16

---

tested on: HEK-293T; test: Multiplex assay against HEK293T; format: toxicity, cell-based; conditions: human, 48 h, 10 µM, compound concentration 10 uM, replicate 2;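 further: share of the cells with healthy nuclei that show this phenotype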
quantity_measured: Population Tubulin-Different-Phenotype (%)
Numbers only, in %.

Please report Population Tubulin-Different-Phenotype (%) for every entry that follows.
1. Cl.NC[C@@H]1O[C@H](C23CC4CC(CC(C4)C2)C3)Cc2c1ccc(O)c2O
2. c1ccc(-c2oc3ncnc(NC[C@@H]4CCCO4)c3c2-c2ccccc2)cc1
3. CCCCN(CC)c1nc(C)nc2c1c(C)cn2-c1c(C)cc(C)cc1C.Cl
4. CC(C)[C@H](CO)Nc1nc(Nc2cccc(Cl)c2)c2ncn(C(C)C)c2n1

Output:
1. 66
2. 90
3. 67
4. 94

---

system: U2OS; assay: Multiplex assay against U2OS; format: toxicity, cell-based; settings: human, 24 h, 1 µM, compound concentration 1 uM, replicate 2
Would you kindly list Population Pyknosed Nuclei (%) for each of these compounds?
Answers are plain numbers, in %.

CC(C)[C@H](CO)Nc1nc(Nc2cccc(Cl)c2)c2ncn(C(C)C)c2n1 | 8

Please supply Population Pyknosed Nuclei (%) for each of the following items, keeping them in order.
1. Cl.Cn1c2c(c3ccc(Cl)c(Cl)c31)C(C#N)C1(CCNCC1)NC2=O (stereo not drawn)
2. CCCCN(CC)c1nc(C)nc2c1c(C)cn2-c1c(C)cc(C)cc1C.Cl
3. N#CCNC(=O)c1ccc(-c2ccnc(Nc3ccc(N4CCOCC4)cc3)n2)cc1
4. C=CC(=O)Nc1cc(-n2c(=O)ccc3cnc4ccc(-c5ccc(NS(C)(=O)=O)cc5)cc4c32)ccc1C
5. CC[C@@H]1C(=O)N(C)c2cnc(Nc3ccc(C(=O)NC4CCN(C)CC4)cc3OC)nc2N1C1CCCC1
6. CCOC(=O)CCNc1cc(N2CCc3ccccc3CC2)nc(-c2ccccn2)n1
7. Cc1c(Nc2ccc(S(=O)(=O)N3CCN(C)CC3)cc2F)nc2ccc(-c3cnn(C4CC4)c3)cn2c1=O
8. CN1C(=O)[C@@H](NC(=O)c2cc3ccccc3[nH]2)N=C(c2ccccc2)c2ccccc21 [DEVAZEPIDE]

Output:
1: 2; 2: 15; 3: 5; 4: 11; 5: 8; 6: 4; 7: 6; 8: 10

---

test system: HEK-293T; assay: Multiplex assay against HEK293T; type: toxicity, cell-based; settings: human, 48 h, 1 µM, compound concentration 1 uM, replicate 2;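 further: share of the cells with healthy nuclei that show this phenotype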
quantity_measured: Population Tubulin-Different-Phenotype (%)
Answers are plain numbers, in %.

CC(C)c1cc(Nc2nc(N3CCC[C@H](N)C3)ncc2C(N)=O)cc(C(C)C)n1 | 96
Cl.NC[C@@H]1O[C@H](C23CC4CC(CC(C4)C2)C3)Cc2c1ccc(O)c2O | 42
N#Cc1cccc(C(=O)Nc2cc(-c3ccccc3)nn2-c2ccccc2)c1 | 42
CCCc1cc(C)[nH]c(=O)c1CNC(=O)c1cc(-c2ccc(N3CCN(C(C)C)CC3)nc2)cc2c1cnn2C(C)C | 91
Cc1c(P(=S)(c2ccccc2)c2ccccc2)n2ccccc2[n+]1C/C=C/c1ccccc1.[Br-] | 89
CN(c1cc(C(F)(F)F)nc(OCCC(=O)O)n1)c1cccc2c1CCC2 | 21

// switching to the query molecule
The molecule listed as CN1C(=O)[C@@H](NC(=O)c2cc3ccccc3[nH]2)N=C(c2ccccc2)c2ccccc21 [DEVAZEPIDE] has a reported Population Tubulin-Different-Phenotype (%) of 34

---

tested on: U2OS; assay: Multiplex assay against U2OS; assay type: toxicity, cell-based; conditions: human, 24 h, 10 µM, compound concentration 10 uM, replicate 1
For each record, write down the corresponding Population Membrane Permeable-Phenotype (%).
Give bare numbers, in %.

Cl.Cn1c2c(c3ccc(Cl)c(Cl)c31)C(C#N)C1(CCNCC1)NC2=O (stereo not given) | 92
N#Cc1cccc(C(=O)Nc2cc(-c3ccccc3)nn2-c2ccccc2)c1 | 33
C=CC(=O)Nc1cc(-n2c(=O)ccc3cnc4ccc(-c5ccc(NS(C)(=O)=O)cc5)cc4c32)ccc1C | 8
CC[C@@]1(O)C(=O)OCc2c1cc1n(c2=O)Cc2cc3ccccc3nc2-1 [CAMPTOTHECIN] | 14
Cc1ccc(S(=O)(=O)NC2c3ccccc3Oc3ccccc32)cc1 | 34
CC(Cc1ccc(O)c(O)c1)C(C)Cc1ccc(O)c(O)c1 (stereo not given) [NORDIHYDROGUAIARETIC ACID] | 10
COc1cc(C)c(Sc2cnc(NC(=O)c3ccc(CNC(C)C(C)(C)C)cc3)s2)cc1C(=O)N1CCN(C(C)=O)CC1 (stereo not given) | 7
CC(C)c1cc(Nc2nc(N3CCC[C@H](N)C3)ncc2C(N)=O)cc(C(C)C)n1 | 97

For each of the compounds below, state Population Membrane Permeable-Phenotype (%).
1. CN(c1cc(C(F)(F)F)nc(OCCC(=O)O)n1)c1cccc2c1CCC2
2. Cl.NC[C@@H]1O[C@H](C23CC4CC(CC(C4)C2)C3)Cc2c1ccc(O)c2O

Output:
1: 5; 2: 7

These data points were gathered from ChEMBL document CHEMBL4689842.
